We begin with a simple list: items and their reported AUC(0-t).
# assay protocol: Pharmacokinetics in mice after IV and PO administrations
# Format: in vivo, male BALB-c mice
# assay setup: male, BALB-c, mouse, plasma, 10 mg/kg PO, read-out: AUC0-t
State the answer as a number, implicitly in ng·h/mL.

- O=C1NCC=CCN1[C@@H]1O[C@H](CO)[C@@H](O)[C@H]1O [ER-876400, reference compound]: 13200

Now for a further molecule.
### Prompt Any idea what its AUC(0-t) is? The molecule is "O=C1NCC=CCN1[C@@H]1O[C@H](CO)[C@@H](O)C1(F)F"
### Response 8580
